ASSAY PROCEDURE: NCI Yeast Anticancer Drug Screen. Data for the cln2 rad14 strain (AID 165);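 also: 0% = growth equal to vehicle treated cultures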
DETAILS: S. cerevisiae cln2 rad14 strain, at 50.0 µM (retest, dose inferred, filed as 5.0), active compounds read high
Description: Growth inhibition of yeast strains with defined genetic alterations is measured as a screen for potential anti-cancer activity. Selected strains with alterations in DNA damage repair or cell cycle control were exposed to compounds and growth inhibition was measured relative to vehicle treated controls. The strain used in this assay is cln2 rad14
About 79,000 compounds went through this panel and 15% of them were active in at least one assay; those are over-represented in the sample as a whole.
# growth inhibition values compiled below
# unit: % | format: bare number

Example cases with answers are listed next.
Item: CCCCCCCCC1N(C)CCCN1C | growth inhibition: 98

Item: COc1ccc(COCCOCc2nc(C#N)c(N)o2)cc1 | growth inhibition: 11

Item: O=C(NCCCl)Nc1c2ccccc2nc2ccccc12 | growth inhibition: 23

Item: N#CC(CC(Br)CBr)(c1ccccc1)c1ccccc1 (stereo not drawn) | growth inhibition: -2

Item: O/N=C1\c2ccccc2-c2ccc(Cl)cc21 | growth inhibition: 27

Item: C/C(=N/NC(=S)Nc1cccc(C)c1)c1ccccn1 | growth inhibition: 99

Item: NCC1CCNCC1 | growth inhibition: -6

Item: NC(=O)c1cccn1Cc1ccccc1SSc1ccccc1Cn1cccc1C(N)=O | growth inhibition: 98

Item: C/C(=N/NC(=S)Nc1ccccc1Cl)c1ccccn1 | growth inhibition: 5

Item: O=[N+]([O-])c1ccc(Cl)c(C(Nc2nncs2)Nc2nncs2)c1 | growth inhibition: 84

Next:
Item: COc1ccc(CCCC(=O)O)c2c(OC)cccc12 | growth inhibition: 55

Item: CCCCc1cc2c(cc1O)CCC1C2CC[C@@]2(C)C1CC[C@@H]2O (stereo partly drawn) | growth inhibition: 97

Item: COc1ccc(C2SC(N)=Nc3c2c(C)nn3C(=O)c2ccccc2O)cc1OC (stereo not drawn) | growth inhibition: 24

Item: NNC(=S)N/N=C(\CC1OC(=O)c2ccccc21)c1ccccc1O (stereo not drawn) | growth inhibition: 4

Item: COC(=O)[C@]1(C)CCCC2(C)C3=C(CCC21)CC1(CC3)SCCS1 (stereo partly drawn) | growth inhibition: 96

Item: CC(=O)Oc1c(-c2ccccc2)cc([N+](=O)[O-])cc1[N+](=O)[O-] | growth inhibition: 59
